- measurement.target: β-secretase (BACE-1) (Homo sapiens, UniProt P56817)
- Construct: purchased Sigma–Aldrich
- Sequence (P56817 46-501): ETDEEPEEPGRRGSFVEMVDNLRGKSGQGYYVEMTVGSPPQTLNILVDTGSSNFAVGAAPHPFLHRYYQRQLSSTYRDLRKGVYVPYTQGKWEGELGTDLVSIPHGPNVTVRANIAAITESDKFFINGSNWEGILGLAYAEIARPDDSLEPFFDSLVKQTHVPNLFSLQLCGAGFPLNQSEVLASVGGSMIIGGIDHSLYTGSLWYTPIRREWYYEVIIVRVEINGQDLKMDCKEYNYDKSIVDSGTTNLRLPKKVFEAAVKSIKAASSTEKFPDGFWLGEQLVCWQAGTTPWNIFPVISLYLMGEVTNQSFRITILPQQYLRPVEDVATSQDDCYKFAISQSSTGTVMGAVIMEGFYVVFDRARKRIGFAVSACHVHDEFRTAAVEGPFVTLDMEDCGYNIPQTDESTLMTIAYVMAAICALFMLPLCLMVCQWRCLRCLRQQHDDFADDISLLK
- method.description: biochemical
- conditions.used: fluorescence kit, 2 h incubation at 37 °C; read-out: BACE-1 IC50
Each record here notes measured IC50.
Write it as a number; the unit µM goes unstated.

Take a look at these entries with their results.
[[record]]
molecule = "C=CCOc1cc2oc(-c3ccccc3)cc(=O)c2c(O)c1OCC=C [Compound B4, 6,7-Diallyloxy-5-hydroxyflavone]"
measurement_target = "β-secretase (BACE-1) (Homo sapiens, UniProt P56817)"
reported_property = "IC50"
output_unit = "µM"
numeric_result = 70.8

[[record]]
molecule = "CCOc1cc(OCC)c2c(=O)cc(-c3ccc(OC)c(OCC)c3)oc2c1 [Compound D6, 3′,5,7-Triethoxy-4′-methoxyflavone]"
measurement_target = "β-secretase (BACE-1) (Homo sapiens, UniProt P56817)"
reported_property = "IC50"
output_unit = "µM"
numeric_result = 1.58

[[record]]
molecule = "COc1ccc(-c2cc(=O)c3c(O)cc(OC(=O)c4ccccc4)cc3o2)cc1OC(=O)c1ccccc1 [Compound D7]"
measurement_target = "β-secretase (BACE-1) (Homo sapiens, UniProt P56817)"
reported_property = "IC50"
output_unit = "µM"
numeric_result = 2.86

[[record]]
molecule = "CCOc1cc2oc(-c3ccccc3)cc(=O)c2c(O)c1OCC [Compound B3, 6,7-Diethoxy-5-hydroxyflavone]"
measurement_target = "β-secretase (BACE-1) (Homo sapiens, UniProt P56817)"
reported_property = "IC50"
output_unit = "µM"
numeric_result = 3.98

[[record]]
molecule = "C=CCOc1cc2oc(-c3ccccc3)cc(=O)c2c(OCC=C)c1OCC=C [Compound B5, 5,6,7-Triallyloxyflavone]"
measurement_target = "β-secretase (BACE-1) (Homo sapiens, UniProt P56817)"
reported_property = "IC50"
output_unit = "µM"
numeric_result = 17

[[record]]
molecule = "O=c1cc(-c2ccccc2)oc2cc(OCc3ccccc3)c(OCc3ccccc3)c(OCc3ccccc3)c12 [Compound B6, 5,6,7-Tribenzyloxyflavone]"
measurement_target = "β-secretase (BACE-1) (Homo sapiens, UniProt P56817)"
reported_property = "IC50"
output_unit = "µM"
numeric_result = 12.6


Lab note: measured IC50 of CCOc1cc(O)c2c(=O)cc(-c3ccc(OC)c(OCC)c3)oc2c1 [Compound D3] was 3.16

Lab note: measured IC50 of COc1cc(O)c2c(=O)cc(-c3ccc(OC)c(OC)c3)oc2c1 [Compound D2, 5-Hydroxy-3’,4’,7-trimethoxyflavone] was 2.14

* * *

- measurement.target: β-secretase (BACE-1) (Homo sapiens)
- Construct: purchased Sigma–Aldrich
- method.description: biochemical
- conditions.used: BACE-1 Obs. pIC50, observed, -logIC50
reported.property: pIC50
A value of pIC50 is the negative decimal logarithm of a concentration given in moles per litre.

Lab note: measured pIC50 of COc1cc(OC)c2c(=O)cc(-c3ccc(OC)c(OC)c3)oc2c1 [Compound D5, 3’,4’,5,7-Tetramethoxyflavone] was 5.78

* * *

- measurement.target: β-secretase (BACE-1) (Homo sapiens)
- Construct: purchased Sigma–Aldrich
- method.description: biochemical
- conditions.used: BACE-1 IC50, fluorescence kit, 2 h incubation at 37 °C
reported.property: IC50

Lab note: measured IC50 of COc1cc(OC)c2c(=O)cc(-c3ccc(OC)c(OC)c3)oc2c1 was 1660 nM

* * *

- measurement.target: β-secretase (BACE-1) (Homo sapiens, UniProt P56817)
- Construct: purchased Sigma–Aldrich
- method.description: biochemical
- conditions.used: observed, -logIC50; read-out: BACE-1 Obs. pIC50 (converted)
reported.property: IC50 (µM)
Write it as a number; the unit µM goes unstated.

[[record]]
molecule = "CCC(=O)Oc1cc2oc(-c3ccccc3)cc(=O)c2c(OC(=O)CC)c1OC(=O)CC [Compound B8, 5,6,7-Tripropionoxyflavone]"
reported_property = "IC50"
numeric_result = 22.4


IC50 on β-secretase (BACE-1) (Homo sapiens, UniProt P56817) for CCOc1cc(O)c2c(=O)cc(-c3ccc(OC)c(OCC)c3)oc2c1 [Compound D3] is 3.16

IC50 on β-secretase (BACE-1) (Homo sapiens, UniProt P56817) for C=CCOc1cc(O)c2c(=O)cc(-c3ccc(OC)c(OCC=C)c3)oc2c1 [Compound D4] is 3.63

IC50 on β-secretase (BACE-1) (Homo sapiens, UniProt P56817) for CCOc1cc2oc(-c3ccccc3)cc(=O)c2c(O)c1OCC [Compound B3, 6,7-Diethoxy-5-hydroxyflavone] is 3.98

IC50 on β-secretase (BACE-1) (Homo sapiens, UniProt P56817) for O=c1cc(-c2ccccc2)oc2cc(OCc3ccccc3)c(OCc3ccccc3)c(OCc3ccccc3)c12 [Compound B6, 5,6,7-Tribenzyloxyflavone] is 12.6

IC50 on β-secretase (BACE-1) (Homo sapiens, UniProt P56817) for CC(=O)Oc1cc2oc(-c3ccccc3)cc(=O)c2c(OC(C)=O)c1OC(C)=O [Compound B7, 5,6,7-Triacetoxyflavone] is 31.6

* * *

Each record here notes measured IC50.
- measurement.target: acetylcholinesterase (AChE) (Electrophorus electricus)
- Sequence (O42275 24-633): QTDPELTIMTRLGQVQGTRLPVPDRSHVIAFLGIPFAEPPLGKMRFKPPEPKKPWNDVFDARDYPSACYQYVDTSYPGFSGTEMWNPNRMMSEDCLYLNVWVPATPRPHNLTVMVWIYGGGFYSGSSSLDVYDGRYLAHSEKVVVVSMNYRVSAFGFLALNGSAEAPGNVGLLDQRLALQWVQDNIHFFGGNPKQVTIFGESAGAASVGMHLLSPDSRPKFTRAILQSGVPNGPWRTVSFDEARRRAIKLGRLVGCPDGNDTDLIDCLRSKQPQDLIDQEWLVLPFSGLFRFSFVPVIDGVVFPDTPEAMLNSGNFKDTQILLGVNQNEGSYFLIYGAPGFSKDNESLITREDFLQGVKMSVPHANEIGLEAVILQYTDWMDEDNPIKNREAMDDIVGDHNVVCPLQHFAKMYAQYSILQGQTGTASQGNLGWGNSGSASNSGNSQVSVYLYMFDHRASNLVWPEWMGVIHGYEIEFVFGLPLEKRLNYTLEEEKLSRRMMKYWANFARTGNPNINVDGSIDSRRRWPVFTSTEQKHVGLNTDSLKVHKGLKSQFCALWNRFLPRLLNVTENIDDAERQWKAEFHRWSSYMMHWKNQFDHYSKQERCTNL
Write it as a number; the unit µM goes unstated.

Take a look at these entries with their results.
[[record]]
molecule = "CCOc1cc2oc(-c3ccccc3)cc(=O)c2c(O)c1OCC [Compound B3, 6,7-Diethoxy-5-hydroxyflavone]"
numeric_result = 30

[[record]]
molecule = "C=CCOc1cc2oc(-c3ccccc3)cc(=O)c2c(O)c1OCC=C [Compound B4, 6,7-Diallyloxy-5-hydroxyflavone]"
numeric_result = 51.8

[[record]]
molecule = "C=CCOc1cc2oc(-c3ccccc3)cc(=O)c2c(OCC=C)c1OCC=C"
numeric_result = 191

[[record]]
molecule = "C=CCOc1cc(O)c2c(=O)cc(-c3ccc(OC)c(OCC=C)c3)oc2c1"
numeric_result = 151

[[record]]
molecule = "COc1cc(O)c2c(=O)cc(-c3ccc(OC)c(OC)c3)oc2c1 [Compound D2, 5-Hydroxy-3’,4’,7-trimethoxyflavone]"
numeric_result = 87.1

[[record]]
molecule = "CC(=O)Oc1cc2oc(-c3ccccc3)cc(=O)c2c(OC(C)=O)c1OC(C)=O"
numeric_result = 51.3

[[record]]
molecule = "COc1cc(OC)c2c(=O)cc(-c3ccc(OC)c(OC)c3)oc2c1"
numeric_result = 73.8

[[record]]
molecule = "COc1cc2oc(-c3ccccc3)cc(=O)c2c(O)c1OC [Compound B2, 5-Hydroxy-6,7-dimethoxyflavone]"
numeric_result = 25.5


Let us examine a further case.
Lab note: measured IC50 of O=c1cc(-c2ccccc2)oc2cc(OCc3ccccc3)c(OCc3ccccc3)c(OCc3ccccc3)c12 was 80.3

* * *

- measurement.target: β-secretase (BACE-1) (Homo sapiens, UniProt P56817)
- Construct: purchased Sigma–Aldrich
- method.description: biochemical
- conditions.used: fluorescence kit, 2 h incubation at 37 °C; read-out: BACE-1 IC50
reported.property: pIC50
A value of pIC50 is the negative decimal logarithm of a concentration given in moles per litre.

Take a look at these entries with their results.
[[record]]
compound = "C=CCOc1cc(O)c2c(=O)cc(-c3ccc(OC)c(OCC=C)c3)oc2c1 [Compound D4]"
numeric_result = 5.44

[[record]]
compound = "CCC(=O)Oc1cc2oc(-c3ccccc3)cc(=O)c2c(OC(=O)CC)c1OC(=O)CC [Compound B8, 5,6,7-Tripropionoxyflavone]"
numeric_result = 4.65


Lab note: measured pIC50 of CC(=O)Oc1cc2oc(-c3ccccc3)cc(=O)c2c(OC(C)=O)c1OC(C)=O [Compound B7, 5,6,7-Triacetoxyflavone] was 4.50

Lab note: measured pIC50 of COc1cc2oc(-c3ccccc3)cc(=O)c2c(O)c1OC [Compound B2, 5-Hydroxy-6,7-dimethoxyflavone] was 4.36

* * *

Each record here notes measured IC50.
- measurement.target: β-secretase (BACE-1) (Homo sapiens)
- Construct: purchased Sigma–Aldrich
- method.description: biochemical
- conditions.used: observed, -logIC50; read-out: BACE-1 Obs. pIC50 (converted)
Write it as a number; the unit µM goes unstated.

Take a look at these entries with their results.
[[record]]
molecule = "COc1ccc(-c2cc(=O)c3c(O)cc(OC(=O)c4ccccc4)cc3o2)cc1OC(=O)c1ccccc1"
numeric_result = 2.88

[[record]]
molecule = "COc1cc(O)c2c(=O)cc(-c3ccc(OC)c(OC)c3)oc2c1 [Compound D2, 5-Hydroxy-3’,4’,7-trimethoxyflavone]"
numeric_result = 2.14

[[record]]
molecule = "C=CCOc1cc2oc(-c3ccccc3)cc(=O)c2c(OCC=C)c1OCC=C"
numeric_result = 17

[[record]]
molecule = "COc1cc2oc(-c3ccccc3)cc(=O)c2c(O)c1OC [Compound B2, 5-Hydroxy-6,7-dimethoxyflavone]"
numeric_result = 43.7

[[record]]
molecule = "C=CCOc1cc2oc(-c3ccccc3)cc(=O)c2c(O)c1OCC=C [Compound B4, 6,7-Diallyloxy-5-hydroxyflavone]"
numeric_result = 70.8


Let us examine a further case.
Lab note: measured IC50 of CCOc1cc(OCC)c2c(=O)cc(-c3ccc(OC)c(OCC)c3)oc2c1 was 1.58
